// data source = PubChem BioAssay (NCI)

tested on: NCI-H226 lung; experiment: NCI-60 one-dose screen, 48 h; details: 10 µM unless noted
Compounds without any hit were thinned out: in the full panel of roughly 83,000, 20% have a hit. Active and inactive are the calls of the source. How the source made its calls: active means growth percent below 10; inactive means the rest.
Possible outcomes: active, inactive

                                    compound  label_class
 0   CCNC(=S)NNC(=O)c1cc2ccc1CCc1ccc(cc1)CC2     inactive
 1       CCN(CC)CCSCCCNc1c(C)cnc2cc(Cl)ccc12     inactive
 2        Cc1cc2cc3cc(C)c(N)cc3[n+](C)c2cc1N     inactive
 3      N#Cc1c(NC(=O)c2cccc(Br)c2)sc2c1CCCC2     inactive
 4  CCNC(=O)c1[nH]cc(-c2ccc(OC)cc2)c1-c1cc(OC)cc(OC)c1     inactive
 5  O=C(c1ccccc1)N1N=C(c2ccc(-n3ccc(C(F)(F)F)n3)cc2)CC1c1ccc[nH]1 (configuration not stated)     inactive
 6  Cn1c(COC(=O)NCCN2CCOCC2)nc2c(N3CCOCC3)nc(-c3ccccc3)nc21       active
 7  CCCCCCCCCCCCC1CCC/C=C\CCC(=O)O1 (configuration not stated)     inactive
 8           NC(=S)N/N=C(/c1ccccc1)c1ccccc1N     inactive
 9  COc1cccc2cc(-c3cc4ccccc4[nH]3)/c(=N/C(=S)Nc3ccc(C)cc3)oc12     inactive
10                FCc1nc2nc(Cl)c(Cl)nc2[nH]1     inactive
11  Cc1c(C(=O)NO)sc2ncnc(Nc3ccc(NC(=S)Nc4ccccc4)cc3)c12     inactive
12  C[C@H]1[C@H](C)CC[C@]2(CO)CC[C@]3(C)C(=CC[C@@H]4[C@@]5(C)CCCNC(C)(C)[C@@H]5CC[C@]43C)[C@H]12       active
13       O=C(Nc1ccc(Cl)cc1)Nc1ccc(Cl)c(Cl)c1     inactive
14        O=C1C(=O)c2c(nc3ncccn23)-c2ccccc21       active
15  CC(=O)c1c[nH]c2ccc(-c3ccnc(Nc4ccc(NC(=O)c5cccc(F)c5)c(CN5CCOCC5)c4)n3)cc12       active
16  c1ccc(-c2nn(-c3ccccc3)[n+](-c3cccc4ccccc34)n2)cc1     inactive
17  COc1ccc(-n2cc(-c3cc(OC)c(OC)c(OC)c3)n(C(C)=O)c2=O)cc1     inactive
18  CCCCCN1C=C/C(=C\C(=O)N(C)c2ccc(Br)cc2)c2ccccc21     inactive
19          Clc1nc(Nc2ccccc2)nc(Nc2ccccc2)n1     inactive
20           O=C(Nc1cccc(Cl)c1)c1cc(Cl)ccc1O       active
21  CCOc1ccc(/C=N/Nc2cc(C)nc3ccc(Cl)cc23)cc1     inactive

###

test system: SNB-75 CNS; assay: NCI-60 one-dose screen, 48 h (100 = growth as untreated, 0 = no growth, -100 = all killed); details: 10 µM unless noted
The panel holds about 83,000 compounds, 20% with a hit somewhere; the sample as a whole holds those more often.
READOUT KIND: growth (%)

In [3]: df
Out[3]:
                                    molecule  experimental_value
 0  O=C1Nc2cc(-c3ccncc3)ccc2/C1=C/c1ccc[nH]1                89.3
 1                 BrC(Br)(Br)c1cnc2ccccc2n1                 102
 2  O=C(Nc1nc2ccc(C(=O)N3CCN(c4ccc(Cl)c(Cl)c4)CC3)cc2s1)c1ccc(NCCc2ccccc2)c([N+](=O)[O-])c1                98.1
 3  COc1ccc(C(O)c2cc3c(N)c(C(=O)Nc4ccc(Br)cc4)sc3nc2C)cc1 (configuration not stated)               -10.8
 4             CCCCCCCCOC(=O)c1ccc(O)c(OC)c1                78.8
 5           CSc1nc(O)c(-c2ccccc2)c(=O)[nH]1                97.1
 6  O=C(N/N=C/c1cccc(O)c1)c1ccccc1Nc1cccc(C(F)(F)F)c1                79.7
 7  CS(=O)(=O)OCCN(CCOS(C)(=O)=O)c1ccc(/C=N/Nc2ccc([N+](=O)[O-])cc2[N+](=O)[O-])cc1                77.2
 8  O=C(CN1CCOCC1)Nc1ccc2ncnc(Nc3ccc(Oc4cccc(F)c4)c(Cl)c3)c2c1                79.5
 9  CC(=O)OCC(=O)C1(O)C(C)CC2C3C=C(C)C4=Cc5c(cnn5-c5ccccc5)CC4(C)C3C(O)CC21C (configuration not stated)               -8.24
10  COc1cc(C2CC(c3cccc(Nc4ccncc4)c3)=NN2C(C)=O)cc(OC)c1OC (configuration not stated)                67.4
11  c1ccc2c(-c3c4ccsc4cc4[nH]c5ccccc5c34)c[nH]c2c1                20.3
12  COc1ccc(C2CC(c3cccc(Nc4ccncc4)c3)=NN2c2cc(Cl)cc(Cl)c2)cc1 (configuration not stated)                65.9
13  Cc1ccc(C(c2c(O)c3cc(Br)ccc3[nH]c2=O)c2c(O)c3cc(Br)ccc3[nH]c2=O)cc1                83.7
14  CC(Oc1ccc(C(=O)NS(=O)(=O)C(C)(C)C)cc1C(F)(F)F)c1ccc(Oc2ccccc2)cn1 (configuration not stated)                48.1
15  Cc1nc2sc(C(=O)Nc3ccccc3)c(N)c2cc1C(=O)c1ccc(C(F)(F)F)cc1                17.4
16                FCc1nc2nc(Cl)c(Cl)nc2[nH]1                91.2
17  CC[N+](CC)(CCCC(C)[N+]1(Cc2ccccc2)C(C)=CC=C1C)Cc1ccccc1 (configuration not stated)                87.6
18  CC(C)[N+](C)(CCOC(COc1ccccc1)COc1ccccc1)C(C)C                70.9
19        COc1cc2nnn3c4ncccc4c(N=O)c3c2cc1OC                79.8
20                      O=CNc1cc(Cl)cc(Cl)c1                 104
21  COc1ccc(C(=O)/C=C/c2ccc(OCc3ccccc3)c(OC)c2)cc1OC                34.1
22  COc1ccc(CNC(=O)COc2ccc(/C=N/Nc3nc4ccccc4s3)cc2)cc1               -2.77
23   CC(C)(C)OC(=O)N1CCN(c2ccc(N)cc2)C(=O)C1                  87
24  COC(=O)C1NC(=S)N(c2ccc(Cl)cc2)C1/C=C/c1ccccc1 (configuration not stated)                 127
25  Clc1ccc(C2CC(c3cccc(Nc4ccncc4)c3)=NN2c2cc(Cl)cc(Cl)c2)cc1 (configuration not stated)                82.8
26         NC(=O)c1cccc(-c2ccccc2N2CCCCC2)c1                99.7
27  COc1cc(CNC(=O)CCCCC[P+](c2ccccc2)(c2ccccc2)c2ccccc2)c(OC)c2c1OCO2                68.5
28  COc1ccc(C(O)c2cc3c(N)c(C(=O)Nc4cccc(OC)c4)sc3nc2C)cc1 (configuration not stated)               -2.98
29  COc1ccc(NC(=O)c2sc3nc(C)c(C(O)c4ccc(OC)cc4)cc3c2N)cc1 (configuration not stated)                 -16
30  O=C(CN1CCOCC1)Nc1ccc2ncnc(Nc3ccc(Oc4cccc(C(F)(F)F)c4)c(Cl)c3)c2c1                73.7
31               FC(F)(F)c1cccc(Nc2ccccc2)c1                94.7
32  CCSc1ccc2c(c1)N(CCCN1CCN(C)CC1)c1ccccc1S2                28.3
33  Cc1cccc(C)c1-c1cc(Cc2ccc(Cl)cc2)c(=O)[nH]n1                90.5
34  CCOC(=O)c1c(O)cc(-c2ccccc2)cc1-c1sc(N(C)Cc2ccccc2)nc1Cl                89.9
35  Cc1c(C(=O)NO)sc2ncnc(Nc3ccc(NC(=S)Nc4ccccc4)cc3)c12                87.9
36  COc1ccccc1/C=C1\Oc2cc(OCCCN3CCCC3)ccc2C1=O                83.5
37                      Cc1cc(C)c(C=O)c(C)c1                  83
38             Cc1n[nH]c(C)c1-c1c(C)n[nH]c1C                35.2
39  NC(=O)C1(N2CCCCC2)CCN(CCCC(=O)c2ccc(F)cc2)CC1                23.5
40  CC(O)/C=C/C=C/C(O)CC/C=C/C(=O)NCC(C)(C)O (configuration not stated)                96.3
41  COc1cc(-c2cc(=O)oc3cc(O)ccc23)cc(OC)c1OC                74.5
